src = patent US10576084B2

experiment: in vivo; parameters: species or system SD rats; settings: male, SD, rat
property name: bioavailability

Write down bioavailability measured for item COc1cc(F)c(-n2c(=O)[nH]c3csc(C(=O)O)c3c2=O)cc1OCc1c(OC)ccc(F)c1F (single isomer, unassigned)
~59%
